# Tested on: E.coli CAN-ICU 63074
# Format: cell-based, Escherichia coli
# protocol-conditions: CAN-ICU 63074, 24 h
Where a SMILES comes first, the peptide text is derived from it. [ ]: non-standard residue; d: D form. The star is where a group is joined. Arachidoyl = CCCCCCCCCCCCCCCCCCCC(=O)*; Myristoyl = CCCCCCCCCCCCCC(=O)*; Nlys = NCCCCNCC(=O)O
readout-name: MIC E.coli in the presence of 4% bovine serum albumin

# annotated cases, reported MIC E.coli in the presence of 4% bovine serum albumin shown
{"compound": "CCCCCCCCCCC(=O)N(CCCCNC(=N)N)CC(=O)N(CCCCNC(=N)N)CC(=O)N(CCCCNC(=N)N)CC(N)=O [C11-NhargNhargNharg]", "subject-of-test": "E.coli CAN-ICU 63074", "result": ">512 µg/mL"}
{"compound": "CCCCCCCCCCCCCCCC(=O)N(CCCCNC(=N)N)CC(=O)NCC(=O)N(CCCCNC(=N)N)CC(N)=O [C16-NhargGNharg]", "subject-of-test": "E.coli CAN-ICU 63074", "result": "512 µg/mL"}
{"compound": "CCCCCCCCCCCCCC(=O)N(CCCCN)CC(=O)NCC(=O)N(CCCCN)CC(N)=O [C14-NlysGNlys] (Myristoyl-[Nlys]-Gly-[Nlys]-NH2)", "subject-of-test": "E.coli CAN-ICU 63074", "result": ">512 µg/mL"}
{"compound": "CCCCCCCCCCC(=O)N(CCCCNC(=N)N)CC(=O)NCC(=O)N(CCCCNC(=N)N)CC(N)=O [C11-NhargGNharg]", "subject-of-test": "E.coli CAN-ICU 63074", "result": ">512 µg/mL"}
{"compound": "CCCCCCCCCCCCCCCC(=O)N(CCCCNC(=N)N)CC(=O)N(CCCCNC(=N)N)CC(=O)N(CCCCNC(=N)N)CC(N)=O [C16-NhargNhargNharg]", "subject-of-test": "E.coli CAN-ICU 63074", "result": ">512 µg/mL"}
{"compound": "CCCCCCCCCCCCCCCCCCCC(=O)N(CCCCN)CC(=O)N(CCCCN)CC(=O)N(CCCCN)CC(N)=O [C20-NlysNlysNlys]", "subject-of-test": "E.coli CAN-ICU 63074", "result": "256 µg/mL"}

Input line: Fill in reported MIC E.coli in the presence of 4% bovine serum albumin for this entry: CCCCCCCCCCCCCCCCCCCC(=O)N(CCCCNC(=N)N)CC(=O)NCC(=O)N(CCCCNC(=N)N)CC(N)=O [C20-NhargGNharg]
Output line: 512 µg/mL

Input line: Fill in reported MIC E.coli in the presence of 4% bovine serum albumin for this entry: CCCCCCCCCCCCCCCCCCCC(=O)N(CCCCN)CC(=O)NCC(=O)N(CCCCN)CC(N)=O [C20-NlysGNlys] (Arachidoyl-[Nlys]-Gly-[Nlys]-NH2)
Output line: >512 µg/mL

Input line: Fill in reported MIC E.coli in the presence of 4% bovine serum albumin for this entry: CCCCCCCCCCCCCC(=O)N(CCCCNC(=N)N)CC(=O)NCC(=O)N(CCCCNC(=N)N)CC(N)=O [C14-NhargGNharg]
Output line: >512 µg/mL

Input line: Fill in reported MIC E.coli in the presence of 4% bovine serum albumin for this entry: CCCCCCCCCCC(=O)N(CCCCN)CC(=O)N(CCCCN)CC(=O)N(CCCCN)CC(N)=O [C11-NlysNlysNlys]
Output line: >512 µg/mL
